Biological target: preformed, sonicated Aβ aggregates (UniProt P05067 672-713)
Sequence (P05067 672-713): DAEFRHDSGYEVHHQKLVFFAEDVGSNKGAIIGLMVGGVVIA
Test: MST
Entries and their measured Kd follow.
Numbers only; they are read as µM.

Examples with answers:
1) MVWGVVGSKWVFFA [AbCap_4]; 1.55
2) GWVVIAGSKLKFFA [AbCap_19]; 6.08

Entry under review: MVWGVVGSKLWFFA [AbCap_3] . Reported Kd?
4.94
